biological target: EZH2 (Homo sapiens); experiment: EZH2 assay: rPRC2 with biotinylated oligonucleosome substrates and 3H SAM, FlashPlate scintillation counting, IC50; assay type: biochemical; details: rPRC2, biotinylated oligonucleosome substrates, 3H SAM; read-out: EZH2 IC50
Sequence (Q15910 whole entry): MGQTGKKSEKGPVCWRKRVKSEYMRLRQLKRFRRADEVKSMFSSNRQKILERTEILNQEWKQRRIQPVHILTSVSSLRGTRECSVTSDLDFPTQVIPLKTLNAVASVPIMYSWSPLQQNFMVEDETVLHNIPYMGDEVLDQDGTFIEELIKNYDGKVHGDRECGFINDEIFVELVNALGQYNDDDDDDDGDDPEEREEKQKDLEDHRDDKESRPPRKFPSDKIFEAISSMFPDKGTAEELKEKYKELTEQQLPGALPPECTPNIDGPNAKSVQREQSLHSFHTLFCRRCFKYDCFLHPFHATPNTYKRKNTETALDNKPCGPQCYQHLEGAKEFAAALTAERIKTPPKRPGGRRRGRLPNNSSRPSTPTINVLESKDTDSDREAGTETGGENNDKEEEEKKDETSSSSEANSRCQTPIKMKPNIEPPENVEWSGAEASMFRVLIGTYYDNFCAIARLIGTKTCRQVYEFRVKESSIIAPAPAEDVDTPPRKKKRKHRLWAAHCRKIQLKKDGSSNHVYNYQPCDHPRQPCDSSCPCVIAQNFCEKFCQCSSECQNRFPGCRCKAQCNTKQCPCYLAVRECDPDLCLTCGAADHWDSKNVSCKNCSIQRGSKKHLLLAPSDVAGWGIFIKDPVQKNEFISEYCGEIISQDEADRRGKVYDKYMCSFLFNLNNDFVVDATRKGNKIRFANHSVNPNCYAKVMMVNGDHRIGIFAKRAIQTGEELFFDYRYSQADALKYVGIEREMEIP
Sequence (O75530 whole entry partner): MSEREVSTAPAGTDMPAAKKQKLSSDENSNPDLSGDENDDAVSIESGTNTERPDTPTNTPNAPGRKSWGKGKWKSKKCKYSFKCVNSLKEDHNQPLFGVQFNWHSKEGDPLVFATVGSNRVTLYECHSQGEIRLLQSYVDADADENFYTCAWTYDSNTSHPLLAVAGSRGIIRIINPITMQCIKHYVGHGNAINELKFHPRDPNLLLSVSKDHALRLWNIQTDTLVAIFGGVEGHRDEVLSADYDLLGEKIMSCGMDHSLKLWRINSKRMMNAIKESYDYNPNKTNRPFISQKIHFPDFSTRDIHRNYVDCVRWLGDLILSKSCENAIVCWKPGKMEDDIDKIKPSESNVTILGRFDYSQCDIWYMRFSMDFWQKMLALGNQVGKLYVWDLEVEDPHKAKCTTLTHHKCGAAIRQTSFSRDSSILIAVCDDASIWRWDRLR
Sequence (Q15022 whole entry partner): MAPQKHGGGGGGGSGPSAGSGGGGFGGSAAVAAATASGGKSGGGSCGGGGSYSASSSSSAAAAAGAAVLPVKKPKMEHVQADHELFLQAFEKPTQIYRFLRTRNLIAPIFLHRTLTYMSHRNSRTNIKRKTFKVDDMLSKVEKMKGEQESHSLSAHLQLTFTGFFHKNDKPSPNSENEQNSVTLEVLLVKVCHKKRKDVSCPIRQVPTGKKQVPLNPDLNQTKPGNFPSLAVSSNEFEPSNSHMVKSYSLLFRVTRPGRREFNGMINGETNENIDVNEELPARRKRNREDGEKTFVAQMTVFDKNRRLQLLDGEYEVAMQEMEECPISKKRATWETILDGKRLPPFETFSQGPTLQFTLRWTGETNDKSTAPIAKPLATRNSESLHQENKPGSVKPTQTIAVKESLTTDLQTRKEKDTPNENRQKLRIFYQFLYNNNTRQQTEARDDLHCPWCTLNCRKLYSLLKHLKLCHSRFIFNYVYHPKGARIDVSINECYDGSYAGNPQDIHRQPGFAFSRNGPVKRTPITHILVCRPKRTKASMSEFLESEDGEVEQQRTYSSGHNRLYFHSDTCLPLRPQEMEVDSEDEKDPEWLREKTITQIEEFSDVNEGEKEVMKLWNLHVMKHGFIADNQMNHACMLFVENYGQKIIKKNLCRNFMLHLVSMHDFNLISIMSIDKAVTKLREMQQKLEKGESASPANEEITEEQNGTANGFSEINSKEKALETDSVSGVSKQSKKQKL
pIC50: −log10 of the molar value.
Provide the recorded pIC50 for the entries that follow.

CC1(C)CC(NC(=O)c2ccc(Oc3cccc(CN4CCCC4=O)c3)c(Cl)c2)CC(C)(C)N1 [Compound I-447] ... 4.70 to 5.30
Cc1cncc(-c2cccc(OCc3ccc(C(=O)NC4CC(C)(C)NC(C)(C)C4)cc3)c2)c1 [Compound I-13] ... 4.70 to 5.30
CC1(C)CC(NC(=O)c2ccc(Oc3cccc(-c4cn[nH]c4)c3C#N)c(Br)c2)CC(C)(C)N1 [Compound I-347] ... > 5.30
CC1(C)CC(NC(=O)c2ccc(COc3cccc(-c4cccnc4)c3)cc2)CC(C)(C)N1 [Compound I-7] ... 4.70 to 5.30

Hello, I would appreciate it if you could give pIC50 for each entry below.
1. CC1(C)CC(NC(=O)c2ccc([S+]([O-])c3ccccc3)cc2)CC(C)(C)N1 (centres unmarked) [Compound I-355]
2. N#Cc1ccccc1Oc1ccc(C(=O)NC2CCNC(=O)C2)cc1Cl (centres unmarked) [Compound I-403]
3. CC1(C)CC(NC(=O)c2ccc(Oc3cccc(-c4ccnnc4)c3C#N)c(Cl)c2)CC(C)(C)C1O (centres unmarked) [Compound I-548]
4. CC1(C)CC(NC(=O)c2ccc(Oc3ccccc3C(N)=O)c(Br)c2)CC(C)(C)N1 [Compound I-388]

Found:
1: < 4.10; 2: < 4.10; 3: > 5.30; 4: 4.70 to 5.30
